Target or system collagenase (MMP-1) (Homo sapiens, UniProt P03956); recorded quantity pIC50.
pIC50: −log10 of the molar value.

Compound: CC(C)C[C@@H](CN(O)C=O)C(=O)N1CCN(c2ccc(-c3ccccc3)cc2)CC1 [Example 2]
Target or test system: collagenase (MMP-1) (Homo sapiens, UniProt P03956)
Sequence (P03956 100-469): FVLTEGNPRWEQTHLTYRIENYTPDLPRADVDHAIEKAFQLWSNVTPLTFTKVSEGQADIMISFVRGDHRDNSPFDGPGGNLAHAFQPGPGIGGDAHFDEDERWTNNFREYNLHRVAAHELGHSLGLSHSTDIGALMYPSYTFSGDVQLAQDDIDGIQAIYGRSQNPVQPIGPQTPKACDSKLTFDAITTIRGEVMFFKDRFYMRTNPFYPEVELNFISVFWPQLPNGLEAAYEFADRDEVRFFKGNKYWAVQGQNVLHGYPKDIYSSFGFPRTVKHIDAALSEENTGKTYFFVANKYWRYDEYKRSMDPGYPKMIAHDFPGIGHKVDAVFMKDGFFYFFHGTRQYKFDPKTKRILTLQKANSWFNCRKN
Readout: pIC50
Recorded measurement: < 5.30

Query compound follows.
Please look at COc1ccc(N2CCN(C(=O)[C@@H](CC(C)C)CN(O)C=O)CC2)cc1 [Example 1] and tell me its recorded pIC50 on collagenase (MMP-1) (Homo sapiens, UniProt P03956).
< 5.30

###

Biological target: metalloelastase (MMP-12) (Homo sapiens)
Sequence (P39900 106-470): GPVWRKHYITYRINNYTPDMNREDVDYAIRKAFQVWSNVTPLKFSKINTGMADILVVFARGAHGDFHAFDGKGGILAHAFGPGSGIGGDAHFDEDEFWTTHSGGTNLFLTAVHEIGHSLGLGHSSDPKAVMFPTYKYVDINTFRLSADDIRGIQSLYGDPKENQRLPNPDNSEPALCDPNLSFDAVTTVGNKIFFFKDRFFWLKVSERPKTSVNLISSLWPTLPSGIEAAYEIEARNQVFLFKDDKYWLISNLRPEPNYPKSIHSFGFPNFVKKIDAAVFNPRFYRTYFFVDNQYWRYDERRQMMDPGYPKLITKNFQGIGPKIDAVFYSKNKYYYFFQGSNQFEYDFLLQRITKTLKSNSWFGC
Readout: pIC50
For clarity, pIC50 is expressed as the negative log10 of concentration in mol/L.

Item COc1ccc(N2CCN(C(=O)[C@@H](CC(C)C)CN(O)C=O)CC2)cc1 [Example 1] : provide pIC50
7.17
